koff values for the binders below.
target-system: T1, recombinant human VISTA (His-tagged) (human, UniProt Q9H7M9 33-194)
T1 construct: bought soluble protein (Sino Biological); also called hVISTA; human VISTA polypeptide
assay-protocol: BLI (Octet), 1:1 global fit, human VISTA captured
reported-property: koff (s⁻¹)

binder	value-comparator	value-measured
anti-VISTA clone V4-C9 IgG1 (antibody, V domains shown) VH: QVQLQESGPGLVKPSDTLSLTCTVSGYSITSDYAWNWIRQTPGKGLEWIGYITYSGYVSYNPSLRSRVTISRDTSKNQFSLKLSSVTAADTAVYSCARALYYPWYFDVWGTGTTVTVSS VL: EIVLTQSPATLSLSPGERATLSCRASSSVGYIHWYQQKPGQAPRPLIYATSNRATGIPARFSGSGSGTDNTLTISSLEPEDSAVYYCQQWSSYPPITFGGGTKLEVKR	=	5.6e-05
anti-VISTA clone V4-C24 IgG1 (antibody, V domains shown) VH: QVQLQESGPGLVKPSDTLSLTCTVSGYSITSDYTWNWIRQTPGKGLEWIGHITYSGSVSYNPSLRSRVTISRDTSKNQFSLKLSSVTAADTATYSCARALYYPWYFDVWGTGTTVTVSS VL: EIVLTQSPATLSLSPGERATLSCRASSSVGYIHWYQQKPGQAPRPLIYTTSYRATGIPARFSGSGSGTDNTLTISSLEPEDSAVYYCQQWSSYPPITFGGGTKLEVKR	<	1e-07
anti-VISTA clone V4-C1 IgG1 (antibody, V domains shown) VH: QVQLQESGPGLVKPSDTLSLTCTVSGYSITSDYAWNWIRQTPGKGLEWIGYITYSGYISYNPSLRSRVTISRDTSKNQFSLKLSSVTAADTAVYSCARALYYPWYFDVWGTGTTVTVSS VL: EIVITQSPATLSLSPGERATLSCRASSSVGYIHWYQQKPGQAPRPLIYATSNRATGIPARFSGSGSGTDNTLTISSLEPEDSAVYYCQQWSSYPPITFGGGTKLEVKR	<	1e-07
anti-VISTA clone V4-C27 IgG1 (antibody, V domains shown) VH: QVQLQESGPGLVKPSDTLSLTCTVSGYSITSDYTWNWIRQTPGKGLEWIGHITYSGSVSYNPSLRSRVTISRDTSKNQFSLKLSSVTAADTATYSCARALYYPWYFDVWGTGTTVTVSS VL: EIVLTQSPATLSLSPGERATLSCRASSSVGYIHWYQQKPGQAPRPLIYATYNRATGIPARFSGSGSGTDNTLTISSLEPEDSAVYYCQQWSSYPPITFGGGTKLEVKR	=	6.1e-05
